Value source: ChEMBL document CHEMBL1201862

system: UO-31; test: NCI tumour cell line growth inhibition, 48 h
Activity calls are given as the source filed them. Cut-off read from the data, not from the text of the source: active = GI50 up to about 1.1 µM and inactive = higher.
QUANTITY_MEASURED: GI50

Look over these answered cases.
- COMPOUND: "O=C(C#CP(=O)(O)c1ccccc1)c1ccccc1"
  GI50: "< 0.01 µM (active)"
- COMPOUND: "CCCC(=O)OCC1OC2OC(C)(C)OC2C2OC(C)(C)OC12 (stereo not given)"
  GI50: "> 100 µM (inactive)"

Exercise: Give measured GI50 for `C=CC1(c2ccc(OC)cc2)OCCCO1` (UO-31).
Solution: > 100 µM (inactive)

Exercise: Give measured GI50 for COc1cc(C2SCC(=O)N2c2ccc(-c3ccc(-n4c(-c5ccccc5)nc5ccccc5c4=O)cc3)cc2)ccc1O (stereo not given) (UO-31).
Solution: 24.4 µM (inactive)

====

tested on: M14; assay: NCI tumour cell line growth inhibition, 48 h
The source made the active and inactive calls. No stated cut-off is given here; in the data, active = GI50 up to about 1.1 µM and inactive = higher.
Hi there, use one of these labels in your reply, thanks! active, inactive

- COMPOUND: "O=C1c2cc(-c3ccccc3)cnc2S(=O)(=O)N1c1ccc(Br)cc1"
  SUBJECT_OF_TEST: "M14"
  CATEGORY_LABEL: "inactive"
- COMPOUND: "CCOc1cc(C=O)c2c(ccc3ccc(OC)c(OC)c32)c1OC"
  SUBJECT_OF_TEST: "M14"
  CATEGORY_LABEL: "inactive"
- COMPOUND: "CC[C@H]1CN2CCc3cc(OC)c(OC)cc3[C@@H]2C[C@@H]1C[C@H]1NCCc2c1[nH]c1ccc(O)cc21"
  SUBJECT_OF_TEST: "M14"
  CATEGORY_LABEL: "active"

Exercise: Hi, sorry to bother you, what did the test record for N#Cc1cc([N+](=O)[O-])ccc1NC(=O)C(=O)C(C(=O)c1ccc2ccccc2c1)C1OCc2ccccc21 (configuration not stated) ?
Solution: inactive

Exercise: Hi, sorry to bother you, what did the test record for Cc1cc(Cl)ccc1NC(=O)CC1SC(Nc2ccccc2Cl)=NC1=O (configuration not stated) ?
Solution: inactive

Exercise: Hi, sorry to bother you, what did the test record for `N#Cc1nc2ccccc2nc1N1CCN(c2ccc([N+](=O)[O-])cc2)CC1` ?
Solution: inactive

Exercise: Hi, sorry to bother you, what did the test record for COC(=O)C(CC1=C(O)Nc2ccccc2N1)/C(=N/NC(N)=O)C(=O)Nc1ccccc1C (configuration not stated) ?
Solution: inactive

Exercise: Hi, sorry to bother you, what did the test record for `O=c1oc2ccc(Cl)cc2cc1C1=CSC2=NCCN12` ?
Solution: inactive

Exercise: Hi, sorry to bother you, what did the test record for `O=c1[nH]c(=O)n(COCc2ccccc2)cc1Nc1ccc(Br)cc1` ?
Solution: inactive

Exercise: Hi, sorry to bother you, what did the test record for `O=C(O)c1cc2c(ncc3c(=O)n(-c4ccccc4)[nH]c32)s1` ?
Solution: inactive

Exercise: Hi, sorry to bother you, what did the test record for `ClCCN(CC#CCCCC#CCN(CCCl)CCCl)CCCl` ?
Solution: inactive

Exercise: Hi, sorry to bother you, what did the test record for CC(C)Cc1ccc(C(C)/C=C2\CCC(CN3CCOCC3)C2=O)cc1 (configuration not stated) ?
Solution: inactive

Exercise: Hi, sorry to bother you, what did the test record for [N-]=[N+]=CC(=O)C1CCCN1C(=O)c1ccccc1 (configuration not stated) ?
Solution: inactive

Exercise: Hi, sorry to bother you, what did the test record for `NNc1nncn1N` ?
Solution: inactive

Exercise: Hi, sorry to bother you, what did the test record for COC(=O)Cc1c(C2C(CC(=O)OC)c3ccccc3N2C2OC(CO)C(O)C(O)C2O)[nH]c2ccccc12 (configuration not stated) ?
Solution: inactive

Exercise: Hi, sorry to bother you, what did the test record for `CC(=O)O[C@H]1CC[C@@]2(C)C(=CC[C@@H]3[C@@H]2CC[C@]2(C)C(=N/O)/C(=C/c4ccc([N+](=O)[O-])cc4)C[C@@H]32)C1` ?
Solution: inactive

Exercise: Hi, sorry to bother you, what did the test record for `CC(C)OC(=O)c1ccc(NCC2=CC(=O)C=CC2=O)cc1Cl` ?
Solution: inactive

Exercise: Hi, sorry to bother you, what did the test record for `CC(=O)Nc1ncc(Sc2ccccc2C(=O)O)s1` ?
Solution: inactive

Exercise: Hi, sorry to bother you, what did the test record for `O=[N+]([O-])c1ccc(/C=C(/c2ccc([N+](=O)[O-])o2)S(=O)(=O)c2ccccc2)o1` ?
Solution: inactive

Exercise: Hi, sorry to bother you, what did the test record for `CCNCCCCNCCCCNCCCCNCCCCNCC` ?
Solution: inactive

Exercise: Hi, sorry to bother you, what did the test record for NC1=NC(c2ccc(Cl)cc2)N(c2ccc(S(N)(=O)=O)cc2)C(N)=N1 (configuration not stated) ?
Solution: inactive

Exercise: Hi, sorry to bother you, what did the test record for O=C1O[C@H]2[C@@H]3OC(=O)c4cc(O)c(O)c(O)c4-c4c(cc(O)c(O)c4O)C(=O)OC[C@H]2O[C@@H](OC(=O)c2cc(O)c(O)c(O)c2)[C@@H]3OC(=O)c2cc(O)c(O)c3c2[C@@H]2C1=CC(=O)C(O)(O)C2(O)O3 (some centres not stated) ?
Solution: inactive

Exercise: Hi, sorry to bother you, what did the test record for `CC12O[Te]34OC1(C)C(C)(O3)C2(C)O4` ?
Solution: inactive
